Origin of values: PubChem BioAssay (NCI)

# Tested on: LOX IMVI melanoma
# TEST_SUMMARY: NCI tumour cell line growth inhibition, 48 h
ENDPOINT_NAME: TGI

{"MOLECULE": "CCOC(=O)C(=O)N1C(C)=C(C(=O)OCC)CC(C(=O)OCC)=C1C", "MEASUREMENT_TARGET": "LOX IMVI melanoma", "TGI": "> 100 µM"}
{"MOLECULE": "O=C1Oc2cc3c(c4cccc1c24)OCN(c1ccc(Cl)cc1)C3", "MEASUREMENT_TARGET": "LOX IMVI melanoma", "TGI": "17.7 µM"}
{"MOLECULE": "O=C(O)Cc1ccc2nc(COC(=O)c3ccccc3)sc2c1", "MEASUREMENT_TARGET": "LOX IMVI melanoma", "TGI": "> 100 µM"}

Any idea what its TGI is? The molecule is CC(C)c1c(P(=O)(c2ccccc2)c2ccccc2)n(C)c2ccccc12 > 100 µM

Same question, CN1CCN(Cc2ccc(NC(=O)c3cncc(C#Cc4cnc(N)c5ccccc45)c3)cc2C(F)(F)F)CC1 this time 0.837 µM

Same question, NNC(=O)c1cnn(-c2ccnc3c(C(F)(F)F)cccc23)c1N this time > 100 µM

Same question, COc1ccc(CN2CCCC(C(=O)c3ccc(C(F)(F)F)cc3)C2)c(O)c1 (stereo unspecified) this time 35.3 µM

Same question, O=C1/C(=C/c2ccc(Br)s2)NC(=S)N1CN1CCOCC1 this time 61.4 µM

---

# Test system: SK-MEL-28 melanoma
# TEST_SUMMARY: NCI tumour cell line growth inhibition, 48 h
ENDPOINT_NAME: GI50

Any idea what its GI50 is? The compound is O=C(O)CCCc1ccc(N(CCCl)CCCl)cc1 21.5 µM

Same question, CC1=C(CCCOC(=O)NCCCl)C2=C(C)C3(CC3)[C@@](C)(O)C(=O)C2=C1 this time 2.63 µM

Same question, N#Cc1c(O)c2c(c(O)c1C#N)C(=O)c1ccccc1C2=O this time 1.06 µM

Same question, COc1ccc(-n2cc(-c3ccc(OC)c(OC)c3)[nH]c2=S)cc1Cl this time > 100 µM

Same question, Cc1c(Cl)cccc1Nc1ncccc1C(=O)O this time > 100 µM

---

Known TGI of a selection of compounds
# System: PC-3 prostate
# TEST_SUMMARY: NCI tumour cell line growth inhibition, 48 h

Examples from the recorded data:
{"COMPOUND": "O=C1/C(=C/c2ccc([N+](=O)[O-])cc2)CNC/C1=C\\c1ccc([N+](=O)[O-])cc1", "TGI": "21.7 µM"}
{"COMPOUND": "CNC(=O)c1cc(Oc2ccc3c(c2)sc2nc(-c4ccc(N)cc4)cn23)ccn1", "TGI": "> 100 µM"}
{"COMPOUND": "Cc1cc(O)cc(O)c1N=Nc1ccc([N+](=O)[O-])cc1", "TGI": "> 100 µM"}
{"COMPOUND": "O=C1C(Br)=Cc2c(Cl)sc(Cl)c21", "TGI": "6.83 µM"}
{"COMPOUND": "Cc1c(Cl)cccc1Nc1ncccc1C(=O)O", "TGI": "> 100 µM"}
{"COMPOUND": "COc1cc2c(cc1OC)C(=O)/C(=C/c1cc(C)c(O)c(C)c1)C2", "TGI": "> 100 µM"}

Could you now look at the following compound, please?
Any idea what its TGI is? The compound is Nc1ncnc2c1ncn2C(=O)NC12CC3CC(CC(C3)C1)C2 > 100 µM

---

Known TGI of a selection of molecules
# Tested on: MOLT-4 leukemia
# TEST_SUMMARY: NCI tumour cell line growth inhibition, 48 h

Examples from the recorded data:
{"MOLECULE": "CN1C(=O)CN(NC(=O)C2=C(O)c3ccc(Br)cc3S(=O)(=O)N2)C1=S", "ENDPOINT_NAME": "TGI", "RESULT": "> 100 µM"}
{"MOLECULE": "CC(C)c1c(P(=O)(c2ccccc2)c2ccccc2)n(C)c2ccccc12", "ENDPOINT_NAME": "TGI", "RESULT": "> 100 µM"}
{"MOLECULE": "O=C1CCC(NC(=O)c2ccccc2)C(=O)N1 (stereo not drawn)", "ENDPOINT_NAME": "TGI", "RESULT": "16.9 µM"}
{"MOLECULE": "COc1cc2c(c(OC)c1OC)-c1ccc(NCc3ccccc3)c(=O)cc1[C@@H](NC(C)=O)CC2", "ENDPOINT_NAME": "TGI", "RESULT": "> 87.5 µM"}
{"MOLECULE": "C#CC(C)(C)Oc1cc(O)c2c(=O)c3ccccc3n(C)c2c1", "ENDPOINT_NAME": "TGI", "RESULT": "> 100 µM"}

Any idea what its TGI is? The molecule is Cc1ccc(C2=Nc3c(c(C)nn3-c3ccccc3)N=C(C(=O)O)C2)cc1 > 10 µM

---

# Tested on: HOP-62 NSCLC
# TEST_SUMMARY: NCI tumour cell line growth inhibition, 48 h
ENDPOINT_NAME: TGI (µM)
# unit: µM | format: bare number

Examples from the recorded data:
{"SMI": "O=[N+]([O-])C(=C(Sc1ccccc1)Sc1ccccc1)C(Cl)=C(Cl)Cl", "UNIT_NAME": "µM", "TGI": 4.09}
{"SMI": "NC1(CCCCCCCCCCC(=O)O)CNCCNCCNCCNC1", "UNIT_NAME": "µM", "TGI": 91.6}

Could you now look at the following compound, please?
Any idea what its TGI is? The compound is CC[n+]1ccc2c(c1)C(=O)c1nccc3c1c-2nc1ccccc13 1.19

---

# Test system: OVCAR-5 ovarian
# TEST_SUMMARY: NCI tumour cell line growth inhibition, 48 h
Known TGI of a selection of compounds

Examples from the recorded data:
{"COMPOUND": "CCN1CCN(c2nc(NCCNc3ccnc4cc(Cl)ccc34)c3ccccc3n2)CC1", "TGI": "9.14 µM"}
{"COMPOUND": "CCOC(=O)c1c(N)n(-c2ccccc2)c(=S)n(-c2ccccc2)c1=O", "TGI": "> 100 µM"}
{"COMPOUND": "NC1(CCCCCCCCCCC(=O)O)CNCCNCCNCCNC1", "TGI": "45.6 µM"}

Any idea what its TGI is? The compound is O=C1/C(=C/c2ccc(Br)s2)NC(=S)N1CN1CCOCC1 > 100 µM

Same question, CC(C)c1c(P(=O)(c2ccccc2)c2ccccc2)n(C)c2ccccc12 this time > 100 µM

Same question, CCOC(=O)c1c(SCCN2CCCC2)n(-c2ccccc2)c(=S)n(-c2ccccc2)c1=O this time > 59.5 µM

Same question, COc1cc2c(cc1OC)C(=O)/C(=C/c1cc(C)c(O)c(C)c1)C2 this time 13.5 µM

Same question, O=C1/C(=C/c2ccccc2)CN(C(=O)Oc2ccc(Cl)cc2)C/C1=C\c1ccccc1 this time 23.2 µM

---

# System: OVCAR-3 ovarian
# TEST_SUMMARY: NCI tumour cell line growth inhibition, 48 h
Known TGI of a selection of compounds

Examples from the recorded data:
{"COMPOUND": "CC(=O)CC(=O)c1cc2c(=O)oc(C)cc2oc1=O", "ENDPOINT_NAME": "TGI", "RESULT": "> 37.5 µM"}
{"COMPOUND": "O=C1CC[C@H]2CNC(=O)C[C@H]2C1", "ENDPOINT_NAME": "TGI", "RESULT": "> 100 µM"}
{"COMPOUND": "CCOC(=O)CCCO", "ENDPOINT_NAME": "TGI", "RESULT": "> 100 µM"}
{"COMPOUND": "O=C(O)c1ccc(NS(=O)(=O)Cc2ccccc2)cc1", "ENDPOINT_NAME": "TGI", "RESULT": "> 100 µM"}
{"COMPOUND": "CC1=C[C@@H]2Cc3occc3C(C)(C)[C@@H]2CC1", "ENDPOINT_NAME": "TGI", "RESULT": "31.5 µM"}

Any idea what its TGI is? The compound is N#CC(C#N)=C1CCCS(=O)(=O)c2ccccc21 > 100 µM

Same question, O=C1CCC(NC(=O)c2ccccc2)C(=O)N1 (configuration not stated) this time > 100 µM

---

# System: OVCAR-5 ovarian
# TEST_SUMMARY: NCI tumour cell line growth inhibition, 48 h; in the data active means GI50 below about 0.43 µM; inactive means the rest
I would appreciate it if you answered using one of these outcomes: active, inactive

Check out these entries, answers already filled in.
{"MOLECULE": "COc1ccc(CN2CCCC(C(=O)c3ccc(C(F)(F)F)cc3)C2)c(O)c1 (centres undefined)", "GROUP_LABEL": "inactive"}
{"MOLECULE": "CCOC(=O)c1cc(-c2ccc([N+](=O)[O-])cc2)n(-c2ccc(C(=O)O)c(O)c2)c1C", "GROUP_LABEL": "inactive"}
{"MOLECULE": "CN(C)CCNc1nc2ccccc2c2[nH]c3ccccc3c12", "GROUP_LABEL": "inactive"}
{"MOLECULE": "O=C1CSC(N2CCN(c3cccc(Cl)c3)CC2)=N1", "GROUP_LABEL": "inactive"}
{"MOLECULE": "NNC(=O)c1cnn(-c2ccnc3c(C(F)(F)F)cccc23)c1N", "GROUP_LABEL": "inactive"}

Which outcome was assigned to Clc1ccc(Cc2nc3cc4ccccc4cc3[nH]2)cc1 in this test? inactive

Same question, CN=C1NC(=O)/C(=C/c2ccc3ncccc3c2)S1 this time inactive

Same question, Fc1ccc(-c2nn(-c3ccccc3)cc2-c2nc3ccccc3o2)cc1 this time inactive

Same question, OC(c1cccc(C(F)(F)F)c1)c1cnccc1NC1CCCCCC1 (centres undefined) this time inactive
